Just for reference, patent US20230285583A1 is where these values come from.

Target: T1, human GIP receptor (human, UniProt P48546 22-466)
T1 sequence (looked up): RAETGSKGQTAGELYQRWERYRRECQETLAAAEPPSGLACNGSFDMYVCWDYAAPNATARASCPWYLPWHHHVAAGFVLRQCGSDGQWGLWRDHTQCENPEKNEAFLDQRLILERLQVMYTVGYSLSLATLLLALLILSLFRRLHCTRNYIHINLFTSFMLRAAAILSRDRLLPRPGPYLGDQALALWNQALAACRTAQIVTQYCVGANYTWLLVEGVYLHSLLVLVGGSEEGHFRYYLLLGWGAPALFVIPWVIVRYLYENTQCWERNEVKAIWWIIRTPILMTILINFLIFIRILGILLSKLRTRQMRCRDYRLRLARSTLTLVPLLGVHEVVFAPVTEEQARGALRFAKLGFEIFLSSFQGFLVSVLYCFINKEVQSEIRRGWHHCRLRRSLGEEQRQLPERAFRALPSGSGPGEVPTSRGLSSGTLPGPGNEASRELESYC
Experiment: cell-based or functional assay
Bridge positions count the residues as written; N and C are the ends. Square brackets hold non-standard residues; d marks the D form. Ends that are not written are not given here. * marks the point of attachment. Acetyl(2-(4-imidazolyl)) = O=C(Cc1c[nH]cn1)*; Aib = CC(C)(N)C(=O)O
Please note: In Vitro Activity Compared to Native Peptide (%) vs. GIP (relative titer from cAMP EC50) exactly at 2% is No. Only values below 2% get Yes.

**Query** # check: In Vitro Activity Compared to Native Peptide (%) vs. GIP (relative titer from cAMP EC50) < 2% for H[Aib]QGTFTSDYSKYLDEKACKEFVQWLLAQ (bridge 16-20; not fully specified (bridges)) [trigonal agonist of SEQ ID NO: 4]
**Result** No

**Query** # check: In Vitro Activity Compared to Native Peptide (%) vs. GIP (relative titer from cAMP EC50) < 2% for H[Aib]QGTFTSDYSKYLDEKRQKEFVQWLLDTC (bridge 16-20; not fully specified (bridges)) [trigonal agonist of SEQ ID NO: 13]
**Result** Yes

**Query** # check: In Vitro Activity Compared to Native Peptide (%) vs. GIP (relative titer from cAMP EC50) < 2% for [Acetyl(2-(4-imidazolyl))][Aib]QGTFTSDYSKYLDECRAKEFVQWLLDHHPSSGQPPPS (bridge 16-20; not fully specified (bridges)) [trigonal agonist of SEQ ID NO: 28]
**Result** No

**Query** # check: In Vitro Activity Compared to Native Peptide (%) vs. GIP (relative titer from cAMP EC50) < 2% for H[Aib]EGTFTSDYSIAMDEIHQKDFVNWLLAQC (lactam 16-20) [trigonal agonist of SEQ ID NO: 14]
**Result** Yes

**Query** # check: In Vitro Activity Compared to Native Peptide (%) vs. GIP (relative titer from cAMP EC50) < 2% for H[Aib]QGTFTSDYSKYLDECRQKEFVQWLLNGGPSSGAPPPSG (bridge 16-20; not fully specified (bridges)) [trigonal agonist of SEQ ID NO: 8]
**Result** No

**Query** # check: In Vitro Activity Compared to Native Peptide (%) vs. GIP (relative titer from cAMP EC50) < 2% for Y[Aib]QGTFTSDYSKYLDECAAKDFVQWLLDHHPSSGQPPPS (bridge 16-20; not fully specified (bridges)) [trigonal agonist of SEQ ID NO: 22]
**Result** No

**Query** # check: In Vitro Activity Compared to Native Peptide (%) vs. GIP (relative titer from cAMP EC50) < 2% for [Acetyl(2-(4-imidazolyl))][Aib]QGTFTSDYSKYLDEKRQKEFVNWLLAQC (bridge 16-20; not fully specified (bridges)) [trigonal agonist of SEQ ID NO: 37]
**Result** Yes

**Query** # check: In Vitro Activity Compared to Native Peptide (%) vs. GIP (relative titer from cAMP EC50) < 2% for Y[Aib]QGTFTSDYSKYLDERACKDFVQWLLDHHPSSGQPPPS (bridge 16-20; not fully specified (bridges); ends not checked) [trigonal agonist of SEQ ID NO: 26]
**Result** No

**Query** # check: In Vitro Activity Compared to Native Peptide (%) vs. GIP (relative titer from cAMP EC50) < 2% for Y[Aib]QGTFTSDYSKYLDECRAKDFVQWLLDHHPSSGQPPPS (bridge 16-20; not fully specified (bridges)) [trigonal agonist of SEQ ID NO: 21]
**Result** No

**Query** # check: In Vitro Activity Compared to Native Peptide (%) vs. GIP (relative titer from cAMP EC50) < 2% for Y[Aib]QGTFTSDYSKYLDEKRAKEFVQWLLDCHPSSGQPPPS (bridge 16-20; not fully specified (bridges); ends not checked) [trigonal agonist of SEQ ID NO: 41]
**Result** No
